Attribution: the OPERA property sets (Mansouri et al. 2018)

Known logP of a selection of compounds
// no unit string in output, number only

SMILES CODE	READOUT VALUE
O=[N+]([O-])c1nc[nH]c1Cl	0.78

# compound Cc1nc([N+](=O)[O-])c(Br)[nH]1 ; its logP = 1.14

Form: compound = Cn1cc([N+](=O)[O-])nc1Br ; logP = 0.33

// Cc1nc(Br)n(C)c1[N+](=O)[O-] : logP value = 0.82

---

READOUT: logP
Lab note: record the figure alone, no unit after it.

For orientation, consider the following solved cases.
SMILES CODE	logP
Cc1[nH]c(Br)nc1[N+](=O)[O-]	0.86
Cn1cnc([N+](=O)[O-])c1	-0.44
Cn1cc([N+](=O)[O-])nc1Cl	0.19
COc1nc[nH]c1[N+](=O)[O-]	0.13
Cn1cnc([N+](=O)[O-])c1Br	0.36

Please turn your attention to the following entry.
Form field logP, entry Cn1cnc(Br)c1[N+](=O)[O-] : 0.77

---

Measured logP, listed per entry for reference.
// response body must contain only the number

// worked examples, logP included
SMILES CODE	READOUT	READOUT VALUE
Cn1cncc1[N+](=O)[O-]	logP	0.13
O=[N+]([O-])c1nc[nH]c1Br	logP	0.85
COc1nc(C)[nH]c1[N+](=O)[O-]	logP	0.21
Cn1ccnc1[N+](=O)[O-]	logP	-0.17
Cn1cnc([N+](=O)[O-])c1N	logP	-1

The compound listed as Cn1c([N+](=O)[O-])cnc1Cl has a reported logP of 0.62

The reported value for Cn1cnc(Cl)c1[N+](=O)[O-] in terms of logP is 0.69

Short answer for Cc1[nH]cnc1[N+](=O)[O-] : logP was 0.23

// field: logP; key: COc1c([N+](=O)[O-])ncn1C ; value = 0.19
